tested system: plasma purified human AT-III (antithrombin III)
protocol text: AT-III/UFH inhibition K0.5, ratio to Catalyst Biosciences WT FIXa
Each record here notes measured K0.5-mut/K0.5-wt.
measurement label: K0.5-mut/K0.5-wt

{"columns": ["protein", "measurement label", "limit qualifier", "recorded measurement"],
 "data": [
  ["FIXa-Y259F/K265T/Y345T (protein) chain 1: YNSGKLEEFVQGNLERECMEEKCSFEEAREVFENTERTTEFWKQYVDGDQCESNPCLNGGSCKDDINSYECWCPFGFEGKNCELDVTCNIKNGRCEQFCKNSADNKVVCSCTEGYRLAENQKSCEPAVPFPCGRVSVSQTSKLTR chain 2: VVGGEDAKPGQFPWQVVLNGKVDAFCGGSIVNEKWIVTAAHCVETGVKITVVAGEHNIEETEHTEQKRNVIRIIPHHNFNAAINTYNHDIALLELDEPLVLNSYVTPICIADKEYTNIFLKFGSGYVSGWGRVFHKGRSALVLQYLRVPLVDRATCLRSTKFTITNNMFCAGFHEGGRDSCQGDSGGPHVTEVEGTSFLTGIISWGEECAMKGKYGIYTKVSRYVNWIKEKTKLT", "K0.5-mut/K0.5-wt", "=", 0.3],
  ["FIXa-D104N/K106S/N260S/R318Y/R338E/R403E/E410N (protein) chain 1: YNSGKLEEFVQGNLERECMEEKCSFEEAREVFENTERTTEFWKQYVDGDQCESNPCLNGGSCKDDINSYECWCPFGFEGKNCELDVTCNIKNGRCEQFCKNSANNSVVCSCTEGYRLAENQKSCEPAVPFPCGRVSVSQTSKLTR chain 2: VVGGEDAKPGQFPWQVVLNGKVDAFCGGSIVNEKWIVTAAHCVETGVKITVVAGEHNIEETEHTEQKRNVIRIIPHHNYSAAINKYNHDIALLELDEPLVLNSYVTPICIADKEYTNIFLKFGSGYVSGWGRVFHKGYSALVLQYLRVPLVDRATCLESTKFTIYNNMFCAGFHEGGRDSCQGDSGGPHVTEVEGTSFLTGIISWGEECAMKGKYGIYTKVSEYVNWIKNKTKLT", "K0.5-mut/K0.5-wt", ">", 517]
]}

Reference source for all entries: patent US20210238260
